For each entry below, report its TGI value.
Tested on: OVCAR-5 ovarian
Assay: NCI tumour cell line growth inhibition, 48 h
Give bare numbers, in µM.

Examples with answers:
C(=N\NC1=NCCN1)/c1ccc2ccccc2c1; 44
CSc1ccc2c(c1)c(CCN)c(C)n2Cc1ccccc1Cl; 3.78
O=C1Nc2ccc(Cl)c(I)c2C1=O; 34.1

Working through the 3 compounds below one at a time, give TGI for each.
1. CN1CCN(c2ccc(NC3=CC(=O)c4ncncc4C3=O)cc2)CC1
2. COc1ccc2nc3ccccc3c(NCCNCC(C)O)c2c1 (centres undefined)
3. Cc1ccc(-c2nc3sc(C)cn3c2/C=C2\C(=O)Nc3ccc(Cl)cc32)cc1

Reply:
1: 0.801; 2: 5.01; 3: 38.5
